What Rank, BB7.2 (decreasing order of ability to increase HLA-A2.1 expression) was measured for each of the following?
# tested_on: HLA-A2.1 (Homo sapiens, UniProt P04439, D140Y/D185E/D98H/E176V/E277Q/G131W/G231S/I119V/I121R/I166T/I218V/L300P/L318F/N151K/N90K/P208A/P217A/Q86G/Q94H/R138H/R169H/T345S)
# assay: T2 MHC class I peptide stabilization assay
# Type: cell-based
# condition_description: 19 HER-2 peptides ranked by BB7.2 MCF, 50 ug/ml

Worked set:
* E73: synthetic HER-2 octamer peptide, residues 835-842 (YLEDVRLV; UniProt P04626 835-842, looked up, fragment) | 13
* E74: synthetic HER-2 peptide, residues 838-846 (DVRLVHRDL; UniProt P04626 838-846, looked up, fragment) | 17

Exercise: Note down Rank, BB7.2 (decreasing order of ability to increase HLA-A2.1 expression) recorded for E76: synthetic HER-2 peptide, residues 402-410 (TLEEITGYL; UniProt P04626 402-410, looked up, fragment)
Solution: 6

---

# tested_on: HLA-A2.1 (Homo sapiens, UniProt P04439, D140Y/D185E/D98H/E176V/E277Q/G131W/G231S/I119V/I121R/I166T/I218V/L300P/L318F/N151K/N90K/P208A/P217A/Q86G/Q94H/R138H/R169H/T345S)
# assay: T2 MHC class I peptide stabilization assay
# Format: cell-based
# condition_description: 19 HER-2 peptides ranked by BB7.2 MCF, 50 ug/ml
What Rank, BB7.2 (decreasing order of ability to increase HLA-A2.1 expression) was measured for each of the following?
Give bare numbers.

Worked set:
• E77: synthetic HER-2 peptide, residues 391-399 (PLQPEQLQV; UniProt P04626 391-399, looked up, fragment) = 10
• D99: synthetic HER-2 decamer peptide, residues 1089-1098 (DLGMGAAKGL; UniProt P04626 1089-1098, looked up, fragment) = 15
• E70: synthetic HER-2 peptide, residues 793-801 (TVQLVTQLM; UniProt P04626 793-801, looked up, fragment) = 18
• E89: synthetic HER-2 peptide, residues 851-859 (VLVKSPNHV; UniProt P04626 851-859, looked up, fragment) = 8

Consider the additional substance presented here.
Exercise: Note down Rank, BB7.2 (decreasing order of ability to increase HLA-A2.1 expression) recorded for C85: synthetic HER-2 peptide, residues 971-979 (ELVSEFSRM; UniProt P04626 971-979, looked up, fragment)
Solution: 14
